Cited source for all entries: ChEMBL document CHEMBL6092217

tested on: PC-3; assay: Antiproliferative activity against human PC-3 cells assessed as cell viability incubated for 72 hrs by MTT assay; assay type: functional, cell-based; conditions: PC-3, 72 h
As shown below, each of these compounds has a reported IC50 value.
Dear colleague, please return just the value in µM, with no unit written.

Any idea what IC50 was measured for COc1ccc(N(C)c2nc(/C=C/c3ccc(OC)cc3OC)nc3ccccc23)cc1 ?
0.11

Note, next up: COc1ccc(N(C)c2nc(C)nc3ccccc23)cc1
0.01

Note, next up: COc1ccc(N(C)c2nc(/C=C/c3cccc(F)c3)nc3ccccc23)cc1
0.09

Note, next up: COc1ccc(N(C)c2nc(/C=C/c3ccc(C)cc3)nc3ccccc23)cc1
0.46

Note, next up: COc1ccc(N(C)c2nc(/C=C/c3ccccc3OC)nc3ccccc23)cc1
0.74

---
Any idea what IC50 was measured for COc1ccc(N(C)c2nc(/C=C/c3cccc(OC)c3OC)nc3ccccc23)cc1 ?
1.1

Note, next up: COc1ccc(N(C)c2nc(/C=C/c3ccccc3)nc3ccccc23)cc1
0.34
